test system: ischemic brain of decapitated mice; assay: Ischemic cerebral metabolism of energy induced by decapitation of mice; format: in vivo, KunMing mice; conditions: NBP 50 and 100 mg/kg oral, sodium Phenobarbital 225 mg/kg ip.; decapitated 30 minutes after administration; 15 seconds ischemia; vs control group
reported_metric: content of ATP in the brain

CCC1(c2ccccc2)C(=O)NC(=O)NC1=O [sodium Phenobarbital]: increased
CCCC[C@@H]1OC(=O)c2ccccc21 [l-NBP, L-butylphthalide]: increased

// provenance: patent US9795585B2
